Biological target: PDGFRA (Homo sapiens)
Construct: ICE Bioscience Inc. (contract assay provider)
Assay: In vitro selectivity assay
Format: biochemical
Details: selectivity panel
TEST_READOUT: IC50

I'm curious: which IC50 was measured for Cn1cc(-c2cc3cnc(Nc4ccc(-c5cncn5/C=C/C(=O)NO)cc4Cl)cc3n2C(=O)OC(C)(C)C)cn1 tested on PDGFRA (Homo sapiens)?
> 10 µM

* * *

Target: TYRO3 (Homo sapiens)
Experiment: In vitro selectivity assay
Format: biochemical
Conditions: selectivity panel
TEST_READOUT: IC50

Which value of IC50 has been reported for Cn1cc(-c2cc3cnc(Nc4ccc(-c5cncn5/C=C/C(=O)NO)cc4Cl)cc3n2C(=O)OC(C)(C)C)cn1 [MPH-5] in the records?
> 10 µM

* * *

Molecular target: PTK2B (Homo sapiens)
Construct: ICE Bioscience Inc. (contract assay provider)
Sequence (Q14289 whole entry): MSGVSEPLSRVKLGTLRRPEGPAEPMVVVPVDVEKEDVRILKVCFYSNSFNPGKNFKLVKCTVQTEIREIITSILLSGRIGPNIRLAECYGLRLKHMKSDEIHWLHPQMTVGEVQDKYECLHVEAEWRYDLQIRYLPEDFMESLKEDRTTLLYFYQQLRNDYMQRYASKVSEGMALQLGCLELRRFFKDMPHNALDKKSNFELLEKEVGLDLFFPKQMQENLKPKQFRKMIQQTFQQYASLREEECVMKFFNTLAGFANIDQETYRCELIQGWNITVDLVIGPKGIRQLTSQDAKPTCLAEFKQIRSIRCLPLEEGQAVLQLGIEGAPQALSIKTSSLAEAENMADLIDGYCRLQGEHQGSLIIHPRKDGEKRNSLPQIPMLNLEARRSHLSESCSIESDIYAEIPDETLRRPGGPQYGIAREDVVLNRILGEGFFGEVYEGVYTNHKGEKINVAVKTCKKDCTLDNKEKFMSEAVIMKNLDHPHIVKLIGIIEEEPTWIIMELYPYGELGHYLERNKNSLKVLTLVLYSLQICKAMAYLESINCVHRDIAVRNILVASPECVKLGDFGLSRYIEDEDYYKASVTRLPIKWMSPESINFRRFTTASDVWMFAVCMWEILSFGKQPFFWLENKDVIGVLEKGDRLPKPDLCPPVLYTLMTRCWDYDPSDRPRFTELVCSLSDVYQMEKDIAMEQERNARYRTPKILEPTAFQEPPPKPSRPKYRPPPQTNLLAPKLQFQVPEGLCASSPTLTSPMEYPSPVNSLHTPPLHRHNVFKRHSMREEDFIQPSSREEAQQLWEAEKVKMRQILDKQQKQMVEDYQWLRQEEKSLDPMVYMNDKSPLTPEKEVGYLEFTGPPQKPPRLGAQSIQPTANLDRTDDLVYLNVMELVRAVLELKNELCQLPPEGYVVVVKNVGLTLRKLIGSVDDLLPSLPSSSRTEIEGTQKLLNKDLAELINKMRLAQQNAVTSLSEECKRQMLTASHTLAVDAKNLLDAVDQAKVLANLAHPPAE
Test: In vitro selectivity assay
Type: biochemical
Details: selectivity panel
TEST_READOUT: IC50

Fill in the recorded IC50 for this compound, with PTK2B (Homo sapiens) as test system: Cn1cc(-c2cc3cnc(Nc4ccc(-c5cncn5/C=C/C(=O)NO)cc4Cl)cc3n2C(=O)OC(C)(C)C)cn1
> 10 µM

* * *

Biological target: ALK (Homo sapiens, UniProt Q9UM73)
Construct: ICE Bioscience Inc. (assay service)
Sequence (Q9UM73 19-1620): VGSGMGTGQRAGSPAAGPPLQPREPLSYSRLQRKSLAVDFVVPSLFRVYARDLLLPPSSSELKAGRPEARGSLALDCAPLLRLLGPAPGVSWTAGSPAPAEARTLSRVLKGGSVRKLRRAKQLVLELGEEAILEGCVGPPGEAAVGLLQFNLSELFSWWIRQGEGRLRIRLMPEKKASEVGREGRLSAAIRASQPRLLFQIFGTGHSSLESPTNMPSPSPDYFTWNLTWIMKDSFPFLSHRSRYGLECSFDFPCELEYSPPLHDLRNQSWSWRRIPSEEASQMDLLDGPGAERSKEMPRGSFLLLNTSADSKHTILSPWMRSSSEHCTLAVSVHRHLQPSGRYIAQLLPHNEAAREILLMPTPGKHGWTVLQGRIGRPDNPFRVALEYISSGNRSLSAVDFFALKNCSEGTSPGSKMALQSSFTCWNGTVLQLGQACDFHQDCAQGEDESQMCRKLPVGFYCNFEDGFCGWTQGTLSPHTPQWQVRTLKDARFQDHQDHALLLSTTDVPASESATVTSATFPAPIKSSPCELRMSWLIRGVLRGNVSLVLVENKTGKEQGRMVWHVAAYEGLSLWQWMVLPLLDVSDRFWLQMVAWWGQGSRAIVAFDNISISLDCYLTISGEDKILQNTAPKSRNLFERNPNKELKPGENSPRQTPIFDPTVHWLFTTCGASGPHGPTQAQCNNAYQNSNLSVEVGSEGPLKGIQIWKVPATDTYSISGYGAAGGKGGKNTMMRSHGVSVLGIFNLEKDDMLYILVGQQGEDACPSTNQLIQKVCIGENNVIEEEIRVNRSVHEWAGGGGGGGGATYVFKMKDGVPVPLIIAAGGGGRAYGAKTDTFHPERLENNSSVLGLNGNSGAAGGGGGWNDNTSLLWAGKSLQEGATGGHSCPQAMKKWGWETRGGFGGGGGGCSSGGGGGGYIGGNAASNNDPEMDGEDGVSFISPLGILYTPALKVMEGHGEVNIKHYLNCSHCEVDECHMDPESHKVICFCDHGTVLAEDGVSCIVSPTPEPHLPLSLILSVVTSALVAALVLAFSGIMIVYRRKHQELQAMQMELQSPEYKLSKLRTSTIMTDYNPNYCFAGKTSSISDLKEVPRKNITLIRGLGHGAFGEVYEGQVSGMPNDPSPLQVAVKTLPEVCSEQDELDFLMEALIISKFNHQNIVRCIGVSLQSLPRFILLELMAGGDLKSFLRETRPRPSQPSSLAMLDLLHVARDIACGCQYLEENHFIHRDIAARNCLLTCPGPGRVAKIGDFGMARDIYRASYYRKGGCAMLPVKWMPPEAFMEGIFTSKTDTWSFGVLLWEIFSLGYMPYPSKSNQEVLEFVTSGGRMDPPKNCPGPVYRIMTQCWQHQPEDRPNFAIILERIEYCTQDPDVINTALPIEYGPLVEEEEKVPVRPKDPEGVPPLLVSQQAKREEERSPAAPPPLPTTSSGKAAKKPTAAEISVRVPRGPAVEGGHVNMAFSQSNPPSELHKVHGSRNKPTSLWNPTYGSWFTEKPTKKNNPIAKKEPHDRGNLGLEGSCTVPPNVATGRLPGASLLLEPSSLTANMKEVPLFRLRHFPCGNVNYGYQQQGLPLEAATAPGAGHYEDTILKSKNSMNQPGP
Test: In vitro selectivity assay
Assay type: biochemical
Conditions: selectivity panel
TEST_READOUT: IC50

For ALK (Homo sapiens, UniProt Q9UM73), provide IC50 of Cn1cc(-c2cc3cnc(Nc4ccc(-c5cncn5/C=C/C(=O)NO)cc4Cl)cc3n2C(=O)OC(C)(C)C)cn1 please.
> 10 µM

* * *

Biological target: HDAC1 (Homo sapiens)
Construct: ICE Bioscience Inc. (contract assay provider)
Sequence (Q13547 whole entry): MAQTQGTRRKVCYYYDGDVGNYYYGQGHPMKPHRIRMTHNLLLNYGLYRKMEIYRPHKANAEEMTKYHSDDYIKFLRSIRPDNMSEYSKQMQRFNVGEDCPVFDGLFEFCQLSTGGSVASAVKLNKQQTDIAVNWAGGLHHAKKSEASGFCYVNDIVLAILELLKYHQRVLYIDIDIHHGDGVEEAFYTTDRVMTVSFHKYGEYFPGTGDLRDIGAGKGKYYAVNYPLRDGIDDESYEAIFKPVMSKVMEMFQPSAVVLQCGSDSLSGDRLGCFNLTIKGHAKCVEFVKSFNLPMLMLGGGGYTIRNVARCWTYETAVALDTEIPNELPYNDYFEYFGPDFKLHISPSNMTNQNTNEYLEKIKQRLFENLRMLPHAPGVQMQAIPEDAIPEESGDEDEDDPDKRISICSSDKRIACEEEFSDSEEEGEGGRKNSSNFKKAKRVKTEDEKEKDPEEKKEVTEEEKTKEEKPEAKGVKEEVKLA
Assay: In vitro selectivity assay
Format: biochemical
Conditions: selectivity panel
TEST_READOUT: IC50

Return reported IC50; argument: Cn1cc(-c2cc3cnc(Nc4ccc(-c5cncn5/C=C/C(=O)NO)cc4Cl)cc3n2C(=O)OC(C)(C)C)cn1
> 10 µM

* * *

Target: HCK (Homo sapiens)
Sequence (P08631 whole entry): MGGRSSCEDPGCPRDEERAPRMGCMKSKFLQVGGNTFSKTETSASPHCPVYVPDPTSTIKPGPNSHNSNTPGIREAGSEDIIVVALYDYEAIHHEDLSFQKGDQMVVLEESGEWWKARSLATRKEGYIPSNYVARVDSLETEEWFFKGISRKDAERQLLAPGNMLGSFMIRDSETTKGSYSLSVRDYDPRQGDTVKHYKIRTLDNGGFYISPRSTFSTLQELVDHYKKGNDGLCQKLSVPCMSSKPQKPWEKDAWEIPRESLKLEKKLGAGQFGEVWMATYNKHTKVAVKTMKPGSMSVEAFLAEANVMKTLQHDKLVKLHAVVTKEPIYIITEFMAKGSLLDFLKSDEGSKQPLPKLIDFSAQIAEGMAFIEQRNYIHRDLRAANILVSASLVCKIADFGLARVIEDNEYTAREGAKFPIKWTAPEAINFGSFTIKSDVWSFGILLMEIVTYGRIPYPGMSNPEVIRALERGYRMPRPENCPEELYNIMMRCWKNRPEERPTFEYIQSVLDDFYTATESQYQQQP
Assay: In vitro selectivity assay
Format: biochemical
Settings: selectivity panel
TEST_READOUT: IC50

Consider the molecule shown here: Cn1cc(-c2cc3cnc(Nc4ccc(-c5cncn5/C=C/C(=O)NO)cc4Cl)cc3n2C(=O)OC(C)(C)C)cn1 [MPH-5] What is its recorded IC50?
> 10 µM

* * *

Molecular target: BTK (Homo sapiens, UniProt Q06187)
Construct: ICE Bioscience Inc. (assay service)
Assay: In vitro selectivity assay
Format: biochemical
Conditions: selectivity panel
TEST_READOUT: IC50

Need IC50 of Cn1cc(-c2cc3cnc(Nc4ccc(-c5cncn5/C=C/C(=O)NO)cc4Cl)cc3n2C(=O)OC(C)(C)C)cn1 [MPH-5] , thanks.
> 10 µM

* * *

Biological target: EPHB3 (Homo sapiens)
Construct: ICE Bioscience Inc. (assay service)
Sequence (P54753 34-998): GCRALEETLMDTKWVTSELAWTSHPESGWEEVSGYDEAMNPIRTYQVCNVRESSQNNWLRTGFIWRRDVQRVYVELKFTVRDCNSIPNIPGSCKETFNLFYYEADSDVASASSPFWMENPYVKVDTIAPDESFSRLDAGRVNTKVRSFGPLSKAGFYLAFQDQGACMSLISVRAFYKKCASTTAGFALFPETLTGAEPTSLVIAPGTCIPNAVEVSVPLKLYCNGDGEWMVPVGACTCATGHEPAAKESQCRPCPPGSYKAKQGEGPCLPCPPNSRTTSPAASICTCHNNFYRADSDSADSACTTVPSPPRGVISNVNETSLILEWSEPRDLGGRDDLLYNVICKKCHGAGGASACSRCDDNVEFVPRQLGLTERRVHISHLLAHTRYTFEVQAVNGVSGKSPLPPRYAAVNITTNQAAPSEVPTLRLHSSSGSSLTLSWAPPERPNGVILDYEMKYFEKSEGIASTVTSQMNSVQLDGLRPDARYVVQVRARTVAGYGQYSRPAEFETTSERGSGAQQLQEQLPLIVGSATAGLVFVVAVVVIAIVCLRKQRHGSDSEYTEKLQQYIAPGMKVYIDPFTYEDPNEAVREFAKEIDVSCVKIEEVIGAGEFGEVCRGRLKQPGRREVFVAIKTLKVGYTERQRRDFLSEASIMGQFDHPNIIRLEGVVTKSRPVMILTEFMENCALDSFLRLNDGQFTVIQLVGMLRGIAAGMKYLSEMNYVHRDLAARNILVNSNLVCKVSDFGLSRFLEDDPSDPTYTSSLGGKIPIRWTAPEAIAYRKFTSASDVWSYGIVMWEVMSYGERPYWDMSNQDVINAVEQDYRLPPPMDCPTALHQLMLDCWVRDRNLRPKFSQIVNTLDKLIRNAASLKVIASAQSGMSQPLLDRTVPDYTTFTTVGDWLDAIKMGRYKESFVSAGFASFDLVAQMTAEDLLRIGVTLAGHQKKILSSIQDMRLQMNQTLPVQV
Assay: In vitro selectivity assay
Type: biochemical
Settings: selectivity panel
TEST_READOUT: IC50

Quick one: IC50 for Cn1cc(-c2cc3cnc(Nc4ccc(-c5cncn5/C=C/C(=O)NO)cc4Cl)cc3n2C(=O)OC(C)(C)C)cn1 ?
> 10 µM

* * *

Biological target: KDR (Homo sapiens, UniProt P35968)
Construct: ICE Bioscience Inc. (contract assay provider)
Assay: In vitro selectivity assay
Format: biochemical
Details: selectivity panel
TEST_READOUT: IC50

Name the recorded IC50 for Cn1cc(-c2cc3cnc(Nc4ccc(-c5cncn5/C=C/C(=O)NO)cc4Cl)cc3n2C(=O)OC(C)(C)C)cn1 .
> 10 µM
